# assay_name: Toxicity: survivors after one intraperitoneal injection in mice
# experimental_context: mouse, in vivo, ip, 20 mg/kg
observable: survival at 192 h (%)

>>> observed_value("COc1cccc2c1C(=O)c1c(O)c3c(c(O)c1C2=O)C[C@@](O)(C(=O)CO)C[C@@H]3O[C@H]1C[C@H](N)[C@H](O)[C@H](C)O1")
60

###

# assay_name: Toxicity: survivors after one intraperitoneal injection in mice
# experimental_context: mouse, in vivo, ip, 50 mg/kg
observable: survival at 192 h (%)

>>> observed_value("COc1cccc2c1C(=O)c1c(O)c3c(c(O)c1C2=O)C[C@@](O)(C(=O)CO)C[C@@H]3O[C@H]1C[C@H](N)[C@H](O)[C@H](C)O1")
0

###

# assay_name: Toxicity: survivors after one intraperitoneal injection in mice
# experimental_context: mouse, in vivo, ip, 40 mg/kg
observable: survival at 192 h (%)

>>> observed_value("COc1cccc2c1C(=O)c1c(O)c3c(c(O)c1C2=O)C[C@@](O)(C(=O)CO)C[C@@H]3O[C@H]1C[C@H](N)[C@H](O)[C@H](C)O1 [Doxorubicin]")
0

###

Na-K ATPase (Oryctolagus cuniculus, UniProt Q9N0Z6): reported pIC50 for various compounds.
pIC50: −log10 of the molar value.
observable: pIC50

>>> observed_value("CCCOc1ccc(C(=O)NN=C(C)[C@]2(O)Cc3c(O)c4c(c(O)c3[C@@H](O[C@H]3C[C@H](N)[C@H](O)[C@H](C)O3)C2)C(=O)c2c(OC)cccc2C4=O)cc1")
8.00
>>> observed_value("COc1cccc2c1C(=O)c1c(O)c3c(c(O)c1C2=O)C[C@@](O)(/C(CO)=N/NC(=O)c1ccc(Cl)c(Cl)c1)C[C@@H]3OC1CC(N)C(O)C(C)O1 (stereo partly shown)")
5.00
>>> observed_value("CCc1ccc(C(=O)N/N=C(\\C)[C@]2(O)Cc3c(O)c4c(c(O)c3[C@H](O[C@H]3C[C@H](N)[C@H](O)[C@H](C)O3)C2)C(=O)c2c(OC)cccc2C4=O)cc1")
7.00
>>> observed_value("CCCCC(=O)NN=C(C)[C@]1(O)Cc2c(O)c3c(c(O)c2[C@@H](O[C@H]2C[C@H](N)[C@H](O)[C@H](C)O2)C1)C(=O)c1c(OC)cccc1C3=O")
6.00
>>> observed_value("COc1cccc2c1C(=O)c1c(O)c3c(c(O)c1C2=O)CC(O)(/C(C)=N/NC(=O)c1ccc(-c2ccccc2)cc1)CC3OC1CC(N)C(O)C(C)O1 (stereo not shown)")
9.00
>>> observed_value("COC(=O)[C@]1(O)Cc2c(O)c3c(c(O)c2[C@@H](O[C@H]2C[C@H](N)[C@H](O)[C@H](C)O2)C1)C(=O)c1c(OC)cccc1C3=O")
9.00
>>> observed_value("COc1cccc2c1C(=O)c1c(O)c3c(c(O)c1C2=O)C[C@@](O)(/C(C)=N/NC(=O)c1ccc(Cl)c(Cl)c1)C[C@@H]3OC1CC(N)C(O)C(C)O1 (stereo partly shown)")
6.00

###

# assay_name: Toxicity: survivors after one intraperitoneal injection in mice
# experimental_context: mouse, in vivo, ip, 30 mg/kg
observable: survival at 192 h (%)

>>> observed_value("COc1cccc2c1C(=O)c1c(O)c3c(c(O)c1C2=O)C[C@@](O)(C(=O)CO)C[C@@H]3O[C@H]1C[C@H](N)[C@H](O)[C@H](C)O1")
0
